Assay: Confirmatory qHTS for small molecule stabilizers of the endoplasmic reticulum resident proteome: Secreted ER Calcium Modulated Protein (SERCaMP) assay (AID 1508628); also: nearly all actives have a fitted effect of over 40% in size
Conditions: SERCaMP secreted luciferase ER calcium/proteostasis reporter; series mostly up to 76.3 µM
Results filed as inconclusive are left out. Active and inactive are the calls of the source. Calls follow the shape of the dose curve; as a rule, active = well fitted inhibition curve with a large enough effect; inconclusive = small, poorly fitted or top-dose-only effect; inactive = no such curve, though single readings can be large or run the other way.
Give one outcome, nothing more. List: active, inactive

Lookup: Give the logged outcome of this assay for the following compound: O=S(=O)(c1cccc2c(Cl)cccc12)N1CCCNCC1
Found: inactive

Lookup: Give the logged outcome of this assay for the following compound: CCCCCCCC/C=C\CCCCCCCC(=O)NCCc1ccc(O)c(O)c1
Found: active

Lookup: Give the logged outcome of this assay for the following compound: O=C(O)CCC(=O)N1CCCC1C(=O)O (stereo unspecified)
Found: inactive

Lookup: Give the logged outcome of this assay for the following compound: NC(N)=NC(N)=Nc1ccccc1
Found: inactive

Lookup: Give the logged outcome of this assay for the following compound: O=c1cc(O)cc(/C=C/c2ccc(O)c(O)c2)o1
Found: active

Lookup: Give the logged outcome of this assay for the following compound: CCCCOC(=O)NS(=O)(=O)c1sc(CC(C)C)cc1-c1ccc(Cn2c(CC)nc3c(C)cc(C)nc32)cc1
Found: active

# credit: PubChem BioAssay (NCATS)
